target: SP receptor (Rattus norvegicus, UniProt P14600); construct: from tissue; host or cells: rat submaxillary gland (crude tissue suspension); test: 3H-SP binding test, rat submaxillary gland tissue; conditions: 30 μM test compound; rat submaxillary gland tissue (Examples 1-34); read-out: 3H-SP Binding % Inhibition
Sequence (P14600 whole entry): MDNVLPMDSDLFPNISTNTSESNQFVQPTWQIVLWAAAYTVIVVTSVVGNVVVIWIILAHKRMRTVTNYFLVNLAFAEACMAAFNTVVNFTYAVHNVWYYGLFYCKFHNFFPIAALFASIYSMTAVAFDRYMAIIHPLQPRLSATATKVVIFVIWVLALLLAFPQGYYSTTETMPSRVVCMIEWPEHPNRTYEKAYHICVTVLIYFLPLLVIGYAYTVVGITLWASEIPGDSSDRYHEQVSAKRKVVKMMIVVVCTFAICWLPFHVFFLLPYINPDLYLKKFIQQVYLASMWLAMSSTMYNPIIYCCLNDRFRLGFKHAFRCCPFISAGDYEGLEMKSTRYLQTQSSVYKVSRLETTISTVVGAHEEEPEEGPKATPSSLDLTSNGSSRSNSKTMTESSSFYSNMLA
Non-standard residues stand in square brackets, D forms with d. Residues, ends and D or L forms follow the SMILES beside them.
ASSAY_READOUT: inhibition at 30 µM (%)
One number for each entry, in %.

CSCC[C@H](NC(=O)[C@H](CC(C)C)NC(=O)CNC(=O)[C@H](Cc1ccccc1)NC(=O)[C@H](Cc1ccccc1)NC(=O)[C@H]1CCCN1)C(N)=O [Example 10, HDPro-Phe-Phe-Gly-Leu-MetNH2] (H-[dP]FFGLM-NH2) = 65

Field: next molecule
(Q) Provide one value: measured inhibition at 30 µM of CSCC[C@H](NC(=O)[C@H](CC(C)C)NC(=O)CNC(=O)[C@@H](Cc1ccccc1)NC(=O)[C@H](Cc1ccccc1)NC(=O)[C@@H]1CCCN1)C(N)=O [Example 7, HPro-Phe-DPhe-Gly-Leu-MetNH2] (H-PF[dF]GLM-NH2)
(A) 48
